- System: lipoperoxide production in homogenized brain
- assay_overview: Lipoperoxide inhibitory activity (natural oxidation of homogenized rat brain, malonodialdehyde by TBA method)
- Type: biochemical, Sprague-Dawley rat
- condition_set: 10^-5 M test compound
readout_kind: Lipoperoxide inhibition rate (%)

• Cc1cc(C)c2ncc(NC(=O)C=Cc3cc(C)c(O)c(C)c3C)c(-c3ccccc3Cl)c2c1 = 84.9
• COc1cc(C=CC(=O)Nc2cnc3c(C)cc(C)cc3c2-c2ccccc2Cl)cc(OC)c1O = 96.1
• Cc1cc(C)c2ncc(NC(=O)C=Cc3cc(C)c(O)c(C)c3)c(-c3ccccc3Cl)c2c1 = 62.1
• COc1cc(C=CC(=O)Nc2cnc3c(C)cc(C)cc3c2-c2ccccc2Cl)cc(OC)c1OC(C)=O = 90.2

====

Entries and their inhibition at 1 µM values follow.
- tested_target: Acyl-CoA: cholesterol acyltransferase (ACAT) (Rattus norvegicus, UniProt Q7TQM4)
- Construct: from the mucosal microsome fraction of the small intestine; from tissue; host or cells: small intestine mucosal microsomes, male 6-week old Sprague-Dawley rats fasted 20 hours
- Sequence (Q7TQM4 1-524): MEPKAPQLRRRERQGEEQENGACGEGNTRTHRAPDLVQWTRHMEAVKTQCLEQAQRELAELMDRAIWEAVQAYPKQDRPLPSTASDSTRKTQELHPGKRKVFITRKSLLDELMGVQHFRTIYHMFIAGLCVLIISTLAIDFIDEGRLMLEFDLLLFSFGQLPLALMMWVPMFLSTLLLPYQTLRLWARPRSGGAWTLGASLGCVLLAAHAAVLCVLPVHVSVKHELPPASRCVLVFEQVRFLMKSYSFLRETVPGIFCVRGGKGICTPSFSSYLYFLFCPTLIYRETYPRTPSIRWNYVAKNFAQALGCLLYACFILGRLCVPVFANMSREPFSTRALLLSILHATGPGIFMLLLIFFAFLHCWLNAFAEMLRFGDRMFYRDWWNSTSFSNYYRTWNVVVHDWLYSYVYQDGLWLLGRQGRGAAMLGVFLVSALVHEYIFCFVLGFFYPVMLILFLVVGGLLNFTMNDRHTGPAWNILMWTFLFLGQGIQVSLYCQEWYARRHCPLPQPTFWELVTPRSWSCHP
- assay_overview: ACAT inhibitory activity (rat small intestine mucosal microsome; labeled cholesterol ester from [1-^14 C] oleoyl-CoA)
- Type: biochemical, Sprague-Dawley rat
- condition_set: 10^-6 M test compound; read-out: ACAT Inhibition Rate
readout_kind: inhibition at 1 µM (%)

- Cc1cc(C)c2ncc(NC(=O)C=Cc3cccc(O)c3O)c(-c3ccccc3Cl)c2c1 [Example 32]: 66.6
- COc1ccc(C=CC(=O)Nc2c(-c3ccccc3Cl)c3cc(C)cc(C)c3n(C)c2=O)cc1OC [Example 36]: 63
- COC(=O)c1ccc(C=CC(=O)Nc2cnc3c(C)cc(C)cc3c2-c2ccccc2Cl)cc1 [Example 23]: 65.9
- CC(=O)Oc1c(C)c(C)c2c(c1C)CC(C)(C(=O)Nc1cnc3c(C)cc(C)cc3c1-c1ccccc1Cl)O2 (stereo not drawn) [Example 13]: 64.7
- Cc1cc(C)c2ncc(NC(=O)C=Cc3ccc(O)c(O)c3)c(-c3ccccc3Cl)c2c1 [Example 38]: 78.2
- O=C(C=Cc1ccc(O)c(O)c1)Nc1cnc2ccc(Cl)cc2c1-c1ccccc1Cl [Example 43]: 97
- CC(=O)Oc1c(C)cc(C(=O)Nc2cnc3c(C)cc(C)cc3c2-c2ccccc2Cl)cc1C [Example 8]: 62
- COc1cc(C=CC(=O)Nc2cnc3c(C)cc(C)cc3c2-c2ccccc2Cl)cc(OC)c1OC(C)=O [Example 27]: 83.7
- Cc1cc(C)c2ncc(NC(=O)Cc3ccc(F)cc3F)c(-c3ccccc3Cl)c2c1 [Example 18]: 94

====

- tested_target: Acyl-CoA: cholesterol acyltransferase (ACAT) (Rattus norvegicus, UniProt Q7TQM4)
- Construct: from the mucosal microsome fraction of the small intestine; from tissue; host or cells: small intestine mucosal microsomes, male 6-week old Sprague-Dawley rats fasted 20 hours
- assay_overview: ACAT inhibitory activity (rat small intestine mucosal microsome; labeled cholesterol ester from [1-^14 C] oleoyl-CoA)
- Type: biochemical, Sprague-Dawley rat
- condition_set: 10^-6 M test compound; read-out: ACAT Inhibition Rate
readout_kind: inhibition at 1 µM (%)

- COc1ccc(OC)c(C=CC(=O)Nc2cnc3c(C)cc(C)cc3c2-c2ccccc2Cl)c1: 73.7
- Cc1cc(C)c2ncc(NC(=O)C=Cc3cc(C)c(O)c(C)c3)c(-c3ccccc3Cl)c2c1: 86.4
- Cc1cc(C)c2ncc(NC(=O)C=Cc3cc(C)c(O)c(C)c3C)c(-c3ccccc3Cl)c2c1: 81.7
- COc1cc(C=CC(=O)Nc2cnc3c(C)cc(C)cc3c2-c2ccccc2Cl)cc(OC)c1O: 81.7
- Cc1cc(C)c2ncc(NC(=O)C3(C)Cc4c(C)c(O)c(C)c(C)c4O3)c(-c3ccccc3Cl)c2c1 (centres unmarked): 83.1
